Sourced from paper PMC3784150

# Measurement Target: C-S lyase (Corynebacterium diphtheriae)
# Construct: recombinant His-tagged apoenzyme
# Sequence (Q6NFZ9 entry or part of it): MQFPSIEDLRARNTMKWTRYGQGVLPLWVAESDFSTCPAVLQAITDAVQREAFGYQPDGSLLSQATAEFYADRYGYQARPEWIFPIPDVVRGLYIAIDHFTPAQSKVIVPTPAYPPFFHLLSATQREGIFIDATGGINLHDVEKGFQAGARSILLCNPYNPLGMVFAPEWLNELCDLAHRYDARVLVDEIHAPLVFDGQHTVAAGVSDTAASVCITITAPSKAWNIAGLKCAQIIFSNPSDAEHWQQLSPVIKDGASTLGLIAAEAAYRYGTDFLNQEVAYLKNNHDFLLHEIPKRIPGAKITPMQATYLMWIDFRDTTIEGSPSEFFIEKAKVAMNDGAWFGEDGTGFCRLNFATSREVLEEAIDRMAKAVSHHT
# Protocol Text: fluorescence titration of apoenzyme (emission at […] nm)
pKd: −log10 of the molar value.
Assay Readout: pKd

1) Cc1ncc(COP(=O)(O)O)c(C=O)c1O [PLP, pyridoxal-5′-phosphate]    7.05
